- MEASUREMENT TARGET: CDK19/Cyclin C (Homo sapiens, UniProt Q9BWU1)
- Sequence (Q9BWU1 whole entry): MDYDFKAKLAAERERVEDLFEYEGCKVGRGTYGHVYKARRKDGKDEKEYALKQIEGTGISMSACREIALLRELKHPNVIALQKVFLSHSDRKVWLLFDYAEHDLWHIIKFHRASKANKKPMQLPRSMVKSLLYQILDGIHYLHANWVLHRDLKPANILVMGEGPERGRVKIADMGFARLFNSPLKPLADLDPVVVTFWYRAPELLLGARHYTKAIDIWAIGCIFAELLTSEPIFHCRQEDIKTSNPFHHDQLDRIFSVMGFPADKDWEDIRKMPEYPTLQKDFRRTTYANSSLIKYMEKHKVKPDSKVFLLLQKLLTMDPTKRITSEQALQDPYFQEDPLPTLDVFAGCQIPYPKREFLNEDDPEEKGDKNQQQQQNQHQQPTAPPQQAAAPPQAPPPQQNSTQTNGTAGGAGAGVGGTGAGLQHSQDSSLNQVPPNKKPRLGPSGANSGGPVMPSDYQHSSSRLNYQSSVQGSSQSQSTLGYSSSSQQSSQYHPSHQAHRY
- Sequence (P24863 whole entry partner): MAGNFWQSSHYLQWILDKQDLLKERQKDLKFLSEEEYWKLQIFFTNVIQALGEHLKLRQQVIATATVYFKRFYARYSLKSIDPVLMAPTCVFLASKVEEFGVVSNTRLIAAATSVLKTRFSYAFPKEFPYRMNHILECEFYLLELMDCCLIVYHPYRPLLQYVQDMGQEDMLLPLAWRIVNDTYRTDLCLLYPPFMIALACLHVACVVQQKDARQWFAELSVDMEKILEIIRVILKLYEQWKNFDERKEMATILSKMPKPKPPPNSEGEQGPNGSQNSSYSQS
- ASSAY EXPLANATION: NanoBRET live-cell target engagement, NanoLuc-CDK19/Cyclin C in HEK-293
- TEST CONTEXT: read-out: IC50 (nM) Replicate 2; CDK19/C
EXPERIMENTAL ENDPOINT: IC50 (nM)
// note: answer is a bare numeric in nM

Give me measured IC50, please, for this molecule: CNC1CCN(C(=O)c2ccc(Nc3ncc(F)c(-c4cnc(C)n4C(C)C)n3)cc2)C1 (stereo not shown)
119

---

- MEASUREMENT TARGET: CDK8/Cyclin C (Homo sapiens, UniProt P49336)
- Sequence (P49336 whole entry): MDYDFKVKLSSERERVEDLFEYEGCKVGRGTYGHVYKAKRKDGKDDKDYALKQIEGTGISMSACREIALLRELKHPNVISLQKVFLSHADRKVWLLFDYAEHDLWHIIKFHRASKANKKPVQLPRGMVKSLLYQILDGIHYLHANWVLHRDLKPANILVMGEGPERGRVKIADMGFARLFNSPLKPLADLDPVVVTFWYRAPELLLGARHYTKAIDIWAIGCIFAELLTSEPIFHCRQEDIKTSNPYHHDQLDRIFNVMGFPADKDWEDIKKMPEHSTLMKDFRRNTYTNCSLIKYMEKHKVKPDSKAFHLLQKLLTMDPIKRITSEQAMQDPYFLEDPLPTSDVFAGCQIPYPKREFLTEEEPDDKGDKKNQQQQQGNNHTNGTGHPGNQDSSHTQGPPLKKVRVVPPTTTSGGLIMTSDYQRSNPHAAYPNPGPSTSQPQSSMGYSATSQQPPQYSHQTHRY
- Sequence (P24863 whole entry partner): as the sequence (P24863 whole entry partner) above
- ASSAY EXPLANATION: NanoBRET live-cell target engagement, NanoLuc-CDK8/Cyclin C in HEK-293
- Assay type: binding
- TEST CONTEXT: CDK8/C; read-out: IC50 (nM) Replicate 3
EXPERIMENTAL ENDPOINT: IC50 (nM)
// note: answer is a bare numeric in nM

Give me measured IC50, please, for this compound: CCCCOc1c(C(=O)c2c(F)cc(C)cc2F)c[nH]c2nncc1-2 [BMS-265246]
0.5
